experiment notes: gradient 5% acetonitrile 3 min, to 50% in 2 min, to 85% in 15 min, held 3 min, 100 µL/min
test context: column: Zorbax Extend-C18 2.1 x 50 mm; eluents: water / acetonitrile, 0.1% formic acid
readout label: RP-LC retention time (s)

molecule=CCOc1ccc(-c2cn3ccn(-c4cc(Cl)ccc4C)c(=O)c3n2)cc1 readout_label="RP-LC retention time" experimental_value=934
molecule="COC1CCC12CCN(C(=O)CNC(C)=O)CC2 (stereo unspecified)" readout_label="RP-LC retention time" experimental_value=607
molecule=Fc1ccccc1-c1noc(NC2CCCC2)n1 readout_label="RP-LC retention time" experimental_value=929
molecule=O=C(NCc1csc(C2CCN(S(=O)(=O)c3ccccc3F)CC2)n1)C1CCC1 readout_label="RP-LC retention time" experimental_value=811
molecule=Cc1cc(C)c2c(N3CCCC3)nc(C(=O)Nc3ccc4c(c3)OCCO4)nc2n1 readout_label="RP-LC retention time" experimental_value=583
molecule=COc1ccc(-c2nc3ccccn3c2NC(=O)c2ccc(Cl)c([N+](=O)[O-])c2)cc1 readout_label="RP-LC retention time" experimental_value=720
molecule=Cc1ccc(NC(=O)Cn2ccc3sccc3c2=O)c(C)c1 readout_label="RP-LC retention time" experimental_value=766
molecule=CCOc1ccc2nc(C(=O)NCc3ccc(OC(C)C)cc3)cn2n1 readout_label="RP-LC retention time" experimental_value=940
molecule=CN(C)S(=O)(=O)c1ccc(-c2nnc(C(=O)NCc3ccc(Br)cc3)o2)cc1 readout_label="RP-LC retention time" experimental_value=912
molecule=Cc1nc(CCNS(=O)(=O)c2cccnc2)no1 readout_label="RP-LC retention time" experimental_value=603
molecule=CNS(=O)(=O)c1cc(-c2nnc(-c3ccccc3)o2)ccc1OC readout_label="RP-LC retention time" experimental_value=786
